The measurements presented in this section are drawn from ChEMBL document CHEMBL1201862.

Tested on: NCI-H522
Protocol Text: NCI tumour cell line growth inhibition, 48 h
The source made the active and inactive calls. No stated cut-off is given here; in the data, active = GI50 up to about 1.1 µM and inactive = higher.
Labels: active, inactive

- Compound: "NNc1nncn1N"
  Assigned Class: "inactive"
- Compound: "O=C1CNc2cc(N3CCN(c4cccc(C(F)(F)F)c4)CC3)ccc2N1"
  Assigned Class: "inactive"
- Compound: "Cc1nc(N)c(N2CCN(S(=O)(=O)N(Cc3ccccc3)Cc3ccccc3)CC2)c(O)n1"
  Assigned Class: "inactive"
- Compound: "CC[C@H]1CN2CCc3cc(OC)c(OC)cc3[C@@H]2C[C@@H]1C[C@H]1NCCc2c1[nH]c1ccc(O)cc21"
  Assigned Class: "active"
- Compound: "O=C(C#CP(=O)(O)c1ccccc1)c1ccccc1"
  Assigned Class: "inactive"
- Compound: "O=C(CCN(C(=O)O)S(=O)(=O)c1ccc(NC(=O)c2ccccc2)cc1)Nc1ccccc1"
  Assigned Class: "inactive"
- Compound: "COc1cc(O)c2c(=O)c(OC)c(-c3ccc(OC)c(O)c3)oc2c1"
  Assigned Class: "inactive"
- Compound: "COc1ccc(N2C(=O)C(N3C(=O)C=CC3=O)C2C=O)cc1 (stereo not given)"
  Assigned Class: "inactive"
- Compound: "Cc1cc(Cl)ccc1NC(=O)CC1SC(Nc2ccccc2Cl)=NC1=O (stereo not given)"
  Assigned Class: "inactive"
- Compound: "Oc1ccc(O)c(Sc2nnc(CCCCCCCCc3nnc(Sc4cc(O)ccc4O)o3)o2)c1"
  Assigned Class: "inactive"

###

Tested on: EKVX
Protocol Text: NCI tumour cell line growth inhibition, 48 h
Active and inactive are the calls of the source. Rule as the data show it: active = GI50 up to about 1.1 µM and inactive = higher.

- Molecule: "C#CCNC(=O)NCCCCC(NC(C)=O)C(=O)NCc1ccccc1 (stereo not given)"
  GI50: "> 100 µM (inactive)"
- Molecule: "CN1C(c2ccccc2)CC(=Nc2ccccc2)CC1c1ccccc1 (stereo not given)"
  GI50: "16.2 µM (inactive)"
- Molecule: "Cc1cc(Cl)ccc1NC(=O)CC1SC(Nc2ccccc2Cl)=NC1=O (stereo not given)"
  GI50: "73.3 µM (inactive)"
- Molecule: "CCOC(=O)C(Sc1ccccc1)c1c(OC)cc(=O)oc1/C=[N+](/[O-])c1ccc(N(C)C)cc1 (stereo not given)"
  GI50: "33.3 µM (inactive)"
- Molecule: "C(=C\\c1nccs1)/c1cccc(/C=C/c2nccs2)n1"
  GI50: "49 µM (inactive)"
- Molecule: "NC1CC2C3CCC2C1C3=O (stereo not given)"
  GI50: "> 100 µM (inactive)"
- Molecule: "CC1(C)CC[C@]2(C(=O)O)CC[C@]3(C)C(=CC[C@@H]4[C@@]5(C)CC[C@H](OC6OC(CO)C(O)C(O)C6OC6OC(CO)C(O)C(O)C6O)C(C)(C)[C@@H]5CC[C@]43C)[C@@H]2C1 (stereo not given in full)"
  GI50: "18.5 µM (inactive)"
- Molecule: "CSC(=S)N(C)C [CYSTOGON]"
  GI50: "> 100 µM (inactive)"
- Molecule: "CCN(CC)CC(=O)N1CCc2c([nH]c3ccccc23)C1c1cccnc1 (stereo not given)"
  GI50: "> 100 µM (inactive)"
- Molecule: "CCCCCCN(CCCCCC)C(=O)Cc1c2n(c3ccccc13)Cc1ccccc1-2"
  GI50: "69.8 µM (inactive)"

###

Test system: SF-268
Protocol Text: NCI tumour cell line growth inhibition, 48 h
Activity calls are given as the source filed them. Cut-off read from the data, not from the text of the source: active = GI50 up to about 1.1 µM and inactive = higher. Where a SMILES comes first, the peptide text is derived from it.
Labels: active, inactive

- Molecule: "CCc1n[nH]c(=O)n1/N=C(\\C)c1ccc([N+](=O)[O-])cc1"
  Assigned Class: "inactive"
- Molecule: "COc1ccc(N2C(=O)C(N3C(=O)C=CC3=O)C2C=O)cc1 (centres undefined)"
  Assigned Class: "inactive"
- Molecule: "C(=N\\c1cnc2ccccc2c1)/c1ccc2ccccc2n1"
  Assigned Class: "inactive"
- Molecule: "Nc1c(C(=O)c2ccccc2)[nH]c(NCc2ccccc2)c1C(=S)Nc1ccccc1"
  Assigned Class: "inactive"
- Molecule: "C=C(C)[C@@]12C[C@H](OC(=O)[C@H](O)[C@@H](NC(=O)c3ccccc3)c3ccccc3)C(C)=C1[C@@H](OC(C)=O)C(=O)[C@@]1(C)C([C@@H]2OC(=O)c2cc(F)cc(F)c2)C2(OC(C)=O)CO[C@@H]2C[C@@H]1O (some centres undefined)"
  Assigned Class: "active"
- Molecule: "N#CC1(Cc2ccc(N)cc2)c2ccccc2C=CN1C(=O)c1ccccc1 (centres undefined)"
  Assigned Class: "inactive"
- Molecule: "C(CCc1nnc2c(n1)CCCC2)Cc1nnc2c(n1)CCCC2"
  Assigned Class: "inactive"
- Molecule: "O=C1c2ccccc2C(=O)N1CCn1ccc(NC(c2ccccc2)(c2ccccc2)c2ccccc2)nc1=O"
  Assigned Class: "inactive"
- Molecule: "CC1NC(=O)CNC(=O)CNC(=O)C(Cc2ccc(O)cc2)NC(=O)C(C(C)C)NC(=O)C(C)NC1=O (centres undefined) (cyclo(GGAAVY); configuration not given here)"
  Assigned Class: "inactive"
- Molecule: "CN1CCC(SC2Cc3cc(Cl)ccc3Sc3ccccc32)CC1 (centres undefined)"
  Assigned Class: "inactive"
- Molecule: "ClCCN(CC#CCCCC#CCN(CCCl)CCCl)CCCl"
  Assigned Class: "inactive"
- Molecule: "C=C(CCOC)CCC1CCCCC(=C)[C@H]1OC(C)=O (some centres undefined)"
  Assigned Class: "inactive"
- Molecule: "COc1cc(C[S+]2CCCC2)c(SC)cc1C[S+]1CCCC1"
  Assigned Class: "inactive"
- Molecule: "CCC1=C(C)/C(=C/c2[nH]c(CBr)c(CC)c2C)N=C1CBr"
  Assigned Class: "inactive"
- Molecule: "COc1ccc(C(OCC2OC(n3ccc(Oc4c(F)c(F)c(F)c(F)c4F)nc3=O)CC2OP(OCCC#N)N(C(C)C)C(C)C)(c2ccccc2)c2ccc(OC)cc2)cc1 (centres undefined)"
  Assigned Class: "inactive"
- Molecule: "Nc1cc(O)c2c(c1O)C(=O)C=CC2=O"
  Assigned Class: "inactive"
- Molecule: "CC(C)=CCC[C@@H](C)C1=C(Nc2ccccc2)C(=O)C(C)=C(O)C1=O"
  Assigned Class: "inactive"
- Molecule: "COc1cc(C2SCC(=O)N2c2ccc(-c3ccc(-n4c(-c5ccccc5)nc5ccccc5c4=O)cc3)cc2)ccc1O (centres undefined)"
  Assigned Class: "inactive"
- Molecule: "S=c1[nH]nc(Cc2ccccc2)c(=S)[nH]1"
  Assigned Class: "inactive"

###

Documented GI50 across a set of molecules
Test system: NCI-H226
Protocol Text: NCI tumour cell line growth inhibition, 48 h
Calls of active or inactive are those of the source. No stated cut-off is given here; in the data, active = GI50 up to about 1.1 µM and inactive = higher.

- Molecule: "CCCCS(=O)(=O)CCC(N)P(=O)(O)O (configuration not stated)"
  Tgt: "NCI-H226"
  GI50: "> 100 µM (inactive)"
- Molecule: "CCOC(=O)CNC(=O)CNC(=O)CNC(=O)CNNc1c(OCc2ccccc2)c(=O)c1=O"
  Tgt: "NCI-H226"
  GI50: "> 100 µM (inactive)"
- Molecule: "Cc1cc(C2CC(O)C(CO)O2)c(F)cc1F (configuration not stated)"
  Tgt: "NCI-H226"
  GI50: "> 100 µM (inactive)"
- Molecule: "C/C(=N\\NC(N)=S)c1ccc2c(c1)Sc1ccccc1O2"
  Tgt: "NCI-H226"
  GI50: "9.23 µM (inactive)"
- Molecule: "O=Cc1cc(O)c(O)c(/C=N/n2c3ccccc3c3ccccc32)c1"
  Tgt: "NCI-H226"
  GI50: "12.6 µM (inactive)"
- Molecule: "C=C1NC(=O)C(CC(C(=O)C(=O)Nc2c(C)cccc2C(C)(C)C)C(=O)c2ccc3ccccc3c2)C(=O)N1 (configuration not stated)"
  Tgt: "NCI-H226"
  GI50: "> 100 µM (inactive)"
- Molecule: "CC12O[Te]34OC1(C)C(C)(O3)C2(C)O4"
  Tgt: "NCI-H226"
  GI50: "16.9 µM (inactive)"
- Molecule: "S=c1[nH]nc(Cc2ccccc2)c(=S)[nH]1"
  Tgt: "NCI-H226"
  GI50: "> 95.3 µM (inactive)"
- Molecule: "CCOC(=O)N1c2c(c3ccccc3n2C(=O)OCC)C(=O)C(OC)N1C(=O)OCC (configuration not stated)"
  Tgt: "NCI-H226"
  GI50: "36.1 µM (inactive)"
- Molecule: "CC(C)=CCC[C@@H](C)C1=C(Nc2ccccc2)C(=O)C(C)=C(O)C1=O"
  Tgt: "NCI-H226"
  GI50: "3.13 µM (inactive)"
- Molecule: "CCN(CC)CCCN1CCc2c([nH]c3ccccc23)C1c1cccnc1 (configuration not stated)"
  Tgt: "NCI-H226"
  GI50: "> 100 µM (inactive)"
- Molecule: "C[Si](C)(C)[C@@]1([Se]c2ccccc2)CC[C@@H]1C(=O)c1ccccc1"
  Tgt: "NCI-H226"
  GI50: "40.2 µM (inactive)"
- Molecule: "COC1(OC)C2(Cl)C(Cl)=C(Cl)C1(Cl)C1c3ccc(C(C)=O)c4cccc(c34)C12 (configuration not stated)"
  Tgt: "NCI-H226"
  GI50: "17 µM (inactive)"
- Molecule: "COC12C=CC(CC1)C1C(=O)c3c(C)c(C)n(C)c3C(=O)C12 (configuration not stated)"
  Tgt: "NCI-H226"
  GI50: "25.9 µM (inactive)"
- Molecule: "CC(C)C(Br)CCC1=CCC(Br)(Br)C1 (configuration not stated)"
  Tgt: "NCI-H226"
  GI50: "11.9 µM (inactive)"
- Molecule: "O=C(c1ccccc1)c1c2ccccn2c2cccc[n+]12"
  Tgt: "NCI-H226"
  GI50: "> 100 µM (inactive)"
- Molecule: "NC(=O)OCc1c(-c2ccccc2)nn(-c2ccccc2)c1COC(N)=O"
  Tgt: "NCI-H226"
  GI50: "> 100 µM (inactive)"
